FYI, the data here is from patent US12123009B2.

coloration score: recorded values
tested on: soybean plantlets; test: High-throughput soybean screening for herbicide tolerance (plantlets); type: in vivo, soybean (A3555); set-up: key: 0 for poor tolerance, high damage, low green coloration; 1 for some tolerance, average damage, moderate green coloration; 2 for good tolerance, low damage, high green coloration; conditions: TP26; S-3100 spray five weeks post-transformation, scored day four
Answer with the value's number alone.

MOLECULE | coloration score
H_N10: E. coli wild-type HemG protoporphyrinogen oxidase, SEQ ID NO:4 (SEQ ID NO:13 lacking start methionine) (protein, listed as Escherichia coli) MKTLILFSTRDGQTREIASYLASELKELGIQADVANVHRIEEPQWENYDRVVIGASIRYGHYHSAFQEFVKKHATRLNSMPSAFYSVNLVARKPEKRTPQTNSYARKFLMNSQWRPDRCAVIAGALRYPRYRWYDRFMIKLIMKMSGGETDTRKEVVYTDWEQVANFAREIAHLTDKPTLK | 0

Okay, now this molecule:
Task: Param item = H_N20: microbial HemG protoporphyrinogen oxidase, SEQ ID NO:2 (SEQ ID NO:12 lacking start methionine) (protein, listed as Pantoea ananatis) MKALILFSTRDGQTQKIASAIADEIKGQQSCDVINIQDAKTLDWQQYDRVLIGASIRYGHFQPVVNEFVKHNLLALQQRVSGFFSVNLTARKPEKRSPETNAYTVKFLAQSPWQPDCCAVFAGALYYPRYRWFDRVMIQFIMRMTGGETDASKEVEYTDWQQVQRFARDFAQLPGKSY ; retrieve measured coloration score.
Result: 1
